Recorded IC50 values for a group of molecules are listed next.
molecular target: CDK9/CyclinT1 (Homo sapiens (Human)); assay: CDK9 kinase assay (TR-FRET); settings: CDK9/CyclinT1 1.0 nM, ATP 3.5 μM
Sequence (P50750 whole entry): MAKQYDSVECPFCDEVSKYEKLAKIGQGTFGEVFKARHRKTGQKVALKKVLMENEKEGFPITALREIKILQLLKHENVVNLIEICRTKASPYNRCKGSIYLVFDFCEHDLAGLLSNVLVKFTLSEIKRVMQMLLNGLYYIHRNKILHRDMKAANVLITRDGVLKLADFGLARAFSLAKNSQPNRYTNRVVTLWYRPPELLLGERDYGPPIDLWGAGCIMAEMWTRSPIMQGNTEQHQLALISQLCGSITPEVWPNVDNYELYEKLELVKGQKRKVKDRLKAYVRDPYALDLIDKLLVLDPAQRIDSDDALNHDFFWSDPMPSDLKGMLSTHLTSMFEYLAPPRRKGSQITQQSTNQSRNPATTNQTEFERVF
Sequence (O60563 whole entry partner): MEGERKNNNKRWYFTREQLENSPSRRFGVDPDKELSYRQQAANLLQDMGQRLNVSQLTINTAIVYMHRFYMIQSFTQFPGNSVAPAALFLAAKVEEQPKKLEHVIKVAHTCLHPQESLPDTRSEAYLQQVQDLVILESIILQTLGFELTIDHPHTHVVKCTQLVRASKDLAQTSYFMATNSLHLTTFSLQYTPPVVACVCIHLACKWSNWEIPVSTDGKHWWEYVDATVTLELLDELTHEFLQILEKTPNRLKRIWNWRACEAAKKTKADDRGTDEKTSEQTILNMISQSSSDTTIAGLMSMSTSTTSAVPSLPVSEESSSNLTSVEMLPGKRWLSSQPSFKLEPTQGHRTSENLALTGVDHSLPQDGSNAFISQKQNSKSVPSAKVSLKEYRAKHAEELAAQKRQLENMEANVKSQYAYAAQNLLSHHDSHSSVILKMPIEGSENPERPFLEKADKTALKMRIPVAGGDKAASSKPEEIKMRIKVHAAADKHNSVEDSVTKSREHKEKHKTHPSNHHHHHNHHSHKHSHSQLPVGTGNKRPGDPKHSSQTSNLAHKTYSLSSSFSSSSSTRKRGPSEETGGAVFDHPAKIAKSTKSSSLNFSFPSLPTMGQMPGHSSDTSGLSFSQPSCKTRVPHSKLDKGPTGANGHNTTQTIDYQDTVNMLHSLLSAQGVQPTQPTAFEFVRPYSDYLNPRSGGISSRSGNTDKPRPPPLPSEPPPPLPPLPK
Answer with a number only, understood to be in nM.

Input line: Can you share its IC50? I mean this molecule: CC(C)NC(=O)O[C@@H]1CC[C@H](c2cc(NC(=O)C3CC(C)N(S(C)(=O)=O)C3)n[nH]2)C1 (single isomer, unassigned)
Output line: 1000

Input line: Name the reported IC50 value associated with the molecule CCC(C)(C)NC(=O)O[C@@H]1CO[C@H](c2cc(NC(=O)c3ccnn3C)n[nH]2)C1
Output line: 131

Input line: Need IC50 of C#C[C@H]1C[C@@H]1C(=O)Nc1cc([C@H]2CC[C@@H](OC(=O)NC3(C)COC3)C2)[nH]n1 , thanks.
Output line: 210

====

molecular target: CDK2/CyclinE1 (Homo sapiens (Human), UniProt P24941); assay: CDK2 kinase assay (TR-FRET); conditions: CDK2/CyclinE1 0.5 nM, ATP 50 μM
attribute.measured: log10 of IC50 (log10 of the value in nM)
Units before log transform: nM; reported quantity: IC50; transform: log10.

Below are worked cases with known answers.
In [3]: df
Out[3]:
                                   compound  assay_value
0  CC(C)NC(=O)O[C@@H]1CC[C@H](c2cc(NC(=O)C3CC3OCC(F)F)n[nH]2)C1 (some centres unmarked) [Compound 147]         0.68
1  CC(C)NC(=O)OC1COC(c2cc(NC(=O)Cc3cc(F)cc(F)c3)n[nH]2)C1 (centres unmarked) [Compound 24]         0.26
2  CO[C@H]1C[C@H](C(=O)Nc2cc([C@H]3CC[C@@H](OC(=O)NC(C)C)C3)[nH]n2)C1 [Compound 68]         0.90

Input line: So what does the record say about log10 of IC50 for COC[C@H]1C[C@@H]1C(=O)Nc1cc([C@H]2CC[C@@H](OC(=O)N[C@H](C)C3CC3)C2)[nH]n1 [Compound 73] ?
Output line: 0.61

Input line: Recorded log10 of IC50 for CC(C)NC(=O)O[C@@H]1CC[C@H](c2cc(NC(=O)CN3CC(F)C3)n[nH]2)C1 [Compound 82] , please?
Output line: 2.06

====

target: CDK2/CyclinE1 (Homo sapiens (Human)); assay: CDK2 kinase assay (TR-FRET); details: CDK2/CyclinE1 0.5 nM, ATP 50 μM
In this section we review reported pIC50 values for a set of compounds.
pIC50 field: float, defined as -log10 of concentration (mol/L).

In [3]: df
Out[3]:
                                   compound                                   tgt  assay_value
0  C#C[C@H]1C[C@@H]1C(=O)Nc1cc([C@H]2CC[C@@H](OC(=O)NC34CC(F)(C3)C4)C2)[nH]n1 [Compound 194]  CDK2/CyclinE1 (Homo sapiens (Human))         9.15
1  CC1(NC(=O)O[C@@H]2CC[C@H](c3cc(NC(=O)[C@@H]4CCN(S(C)(=O)=O)C4)n[nH]3)C2)CCC1 [Compound 119]  CDK2/CyclinE1 (Homo sapiens (Human))         9.40
2  CCC1(NC(=O)O[C@@H]2CO[C@H](c3cc(NC(=O)c4ccnn4C)n[nH]3)C2)CC1 [Compound 204]  CDK2/CyclinE1 (Homo sapiens (Human))         9.00
3  C#C[C@H]1C[C@@H]1C(=O)Nc1cc([C@H]2C[C@@H](OC(=O)NC3(C)CC3)CO2)[nH]n1 [Compound 170]  CDK2/CyclinE1 (Homo sapiens (Human))         9.10
4  CC(C)NC(=O)OC1COC(c2cc(NC(=O)Cc3ccccc3C(F)(F)F)n[nH]2)C1 (stereo not drawn) [Compound 64]  CDK2/CyclinE1 (Homo sapiens (Human))         7.78

Input line: So what does the record say about pIC50 for CC(C)NC(=O)O[C@H]1CC[C@@H](c2cc(NC(=O)C3CC3C#N)n[nH]2)C1 (single isomer, unassigned) [Compound 193] ?
Output line: 9.22

Input line: Tell me the measured pIC50 of COC1CCC(C(=O)Nc2cc([C@H]3CC[C@@H](OC(=O)NC(C)C)C3)[nH]n2)C1 (single isomer, unassigned) [Compound 60] , please.
Output line: 7.43

Input line: Field request: pIC50 | item: CC(C)NC(=O)O[C@H]1CO[C@@H](c2cc(NC(=O)c3cc(C4CC4)nn3C)n[nH]2)C1 [Compound 80]
Output line: 7.81

Input line: For the compound shown here, CC(C)NC(=O)O[C@@H]1CC[C@H](c2cc(NC(=O)C3CC3c3cnn(C)c3)n[nH]2)C1 (single isomer, unassigned) [Compound 209] , give the reported pIC50.
Output line: 7.54

Input line: Name the recorded pIC50 for CC(C)NC(=O)OC1COC(c2cc(NC(=O)c3ccnn3C)n[nH]2)C1 (stereo not drawn) [Compound 26] .
Output line: 8.43

Input line: Given C#CC1(NC(=O)O[C@H]2CO[C@@H](c3cc(NC(=O)c4ccnn4C)n[nH]3)C2)CCC1 [Compound 189] , state its recorded pIC50.
Output line: 9.00

Input line: Entry COCc1cc(C(=O)Nc2cc([C@@H]3C[C@H](OC(=O)NC(C)C)[C@@H]4C[C@@H]43)[nH]n2)n(C)n1 [Compound 9] : reported pIC50 = ?
Output line: 6.00

Input line: So what's the measured pIC50 for this one? COC[C@H]1C[C@@H]1C(=O)Nc1cc([C@H]2CC[C@@H](OC(=O)NC34CC(C(F)F)(C3)C4)C2)[nH]n1 [Compound 142]
Output line: 8.80

Input line: Need pIC50 of CC(C)NC(=O)O[C@H]1CO[C@@H](c2cc(NC(=O)Cc3ccccc3S(C)(=O)=O)n[nH]2)C1 [Compound 134] , thanks.
Output line: 8.66

====

As shown below, each of these compounds has a reported pIC50 value.
biological target: CDK2/CyclinE1 (Homo sapiens (Human), UniProt P24941); assay: CDK2 kinase assay (TR-FRET); conditions: CDK2/CyclinE1 0.5 nM, ATP 50 μM
Schema: pIC50 number; meaning minus log10 of the concentration expressed in molar units.

Input line: Can you look up pIC50 on CDK2/CyclinE1 (Homo sapiens (Human), UniProt P24941) for CC(C)NC(=O)OC1COC(c2cc(NC(=O)Cc3ccccc3C(F)(F)F)n[nH]2)C1 (stereo not shown) [Compound 65] ?
Output line: 7.01

Input line: Record CC(C)NC(=O)O[C@@H]1CC[C@H](c2cc(Nc3nccc(-c4cnn(C)c4)n3)n[nH]2)C1 : what is its pIC50 with CDK2/CyclinE1 (Homo sapiens (Human), UniProt P24941)?
Output line: 7.39

Input line: Query pIC50 on CDK2/CyclinE1 (Homo sapiens (Human), UniProt P24941) for CC(C)NC(=O)O[C@@H]1CO[C@H](c2cc(NC(=O)Cc3ccccc3S(C)(=O)=O)n[nH]2)C1
Output line: 7.87

Input line: Recall the recorded pIC50 for CC(C)NC(=O)O[C@@H]1CC[C@H](c2cc(Nc3nccc(CCO)n3)n[nH]2)C1 [Compound 12] with CDK2/CyclinE1 (Homo sapiens (Human), UniProt P24941) and state it.
Output line: 8.00

Input line: Identify the measured pIC50 of CCc1cc(C(=O)Nc2cc([C@H]3C[C@@H](OC(=O)NC(C)C)CO3)[nH]n2)n(C)n1 for CDK2/CyclinE1 (Homo sapiens (Human), UniProt P24941).
Output line: 8.12

Input line: Hello, I am looking for reported pIC50 with CDK2/CyclinE1 (Homo sapiens (Human), UniProt P24941) for CC[C@H](C)NC(=O)O[C@H]1CO[C@@H](c2cc(NC(=O)c3ccnn3C)n[nH]2)C1 . Could you help?
Output line: 9.10

Input line: # query: pIC50 | item CC(C)NC(=O)O[C@@H]1CC[C@H](c2cc(NC(=O)[C@@H]3C[C@@H](C)N(S(C)(=O)=O)C3)n[nH]2)C1 | system: CDK2/CyclinE1 (Homo sapiens (Human), UniProt P24941)
Output line: 8.44

====

target: CDK2/CyclinE1 (Homo sapiens (Human)); experiment: CDK2 kinase assay (TR-FRET); type: biochemical; conditions: CDK2/CyclinE1 0.5 nM, ATP 50 μM
attribute.measured: IC50
Give the number first and the unit second.

For orientation, consider the following solved cases.
                                   molecule  attribute_measured  assay_value
0  CC1(NC(=O)OC2COC(c3cc(NC(=O)Cc4cc(F)cc(F)c4)n[nH]3)C2)CCOC1 (stereo not shown) [Compound 52]                IC50       1.6 nM
1  CC1(NC(=O)O[C@@H]2CC[C@H](c3cc(NC(=O)[C@@H]4CCN(S(=O)(=O)C5CC5)C4)n[nH]3)C2)CCC1                IC50       0.7 nM
2  CS(=O)(=O)N1CC[C@@H](C(=O)Nc2cc([C@H]3CC[C@@H](OC(=O)NC45CC(C4)C5)C3)[nH]n2)C1                IC50       0.9 nM

Input line: Recorded IC50 for CCC1(NC(=O)O[C@H]2CO[C@@H](c3cc(NC(=O)c4ccnn4C)n[nH]3)C2)CCC1 with CDK2/CyclinE1 (Homo sapiens (Human)), please?
Output line: 0.5 nM

Input line: Requested read-out IC50, target or system CDK2/CyclinE1 (Homo sapiens (Human)), entry CC1(NC(=O)O[C@H]2CC[C@@H](c3cc(NC(=O)C4CC4C#N)n[nH]3)C2)CC1 (single isomer, unassigned) [Compound 195]
Output line: 1.5 nM

Input line: Please provide the recorded IC50 for CC(C)NC(=O)O[C@@H]1CC[C@H](c2cc(NC(=O)[C@H]3C[C@@H]3COC(F)F)n[nH]2)C1 , tested on CDK2/CyclinE1 (Homo sapiens (Human)).
Output line: 1.1 nM

Input line: Can you look up IC50 on CDK2/CyclinE1 (Homo sapiens (Human)) for CC1(NC(=O)OC2COC(c3cc(NC(=O)Cc4cc(F)cc(F)c4)n[nH]3)C2)CCOC1 (stereo not shown) [Compound 51] ?
Output line: 1.7 nM
